Biological target: T1, RXFP1 receptor (endogenous, on OVCAR5 cells) (UniProt Q9HBX9 1-757, limits assumed)
T1 sequence (looked up): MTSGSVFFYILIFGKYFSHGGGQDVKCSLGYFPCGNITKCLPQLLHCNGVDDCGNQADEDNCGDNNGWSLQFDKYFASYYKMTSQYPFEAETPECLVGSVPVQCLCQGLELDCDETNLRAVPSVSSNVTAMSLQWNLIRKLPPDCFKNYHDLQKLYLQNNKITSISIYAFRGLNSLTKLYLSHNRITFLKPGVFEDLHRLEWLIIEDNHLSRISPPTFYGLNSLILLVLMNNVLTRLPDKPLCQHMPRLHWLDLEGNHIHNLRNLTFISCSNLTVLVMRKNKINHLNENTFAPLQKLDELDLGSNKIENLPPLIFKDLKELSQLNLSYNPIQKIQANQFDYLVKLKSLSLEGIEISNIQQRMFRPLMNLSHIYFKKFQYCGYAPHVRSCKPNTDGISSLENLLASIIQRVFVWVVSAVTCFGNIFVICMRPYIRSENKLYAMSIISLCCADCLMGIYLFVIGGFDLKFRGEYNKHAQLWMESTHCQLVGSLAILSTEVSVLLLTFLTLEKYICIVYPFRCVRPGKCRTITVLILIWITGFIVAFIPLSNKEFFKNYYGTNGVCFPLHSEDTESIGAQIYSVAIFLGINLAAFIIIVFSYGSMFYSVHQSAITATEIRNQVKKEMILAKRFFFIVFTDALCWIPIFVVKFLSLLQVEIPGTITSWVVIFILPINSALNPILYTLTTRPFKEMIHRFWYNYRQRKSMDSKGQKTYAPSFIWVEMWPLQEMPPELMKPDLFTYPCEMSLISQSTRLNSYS
Test: cell-based or functional assay
Starred links: 1 amine or outer side, 2 acyl side, 3 side chain; linkers in the order of their positions; H or OH if unused. Non-standard residues stand in square brackets, D forms with d. Groups on a side chain read outwards from the residue. *: point of attachment. TTDS = 4-[3-[2-[2-(3-aminopropoxy)ethoxy]ethoxy]propylamino]-4-oxo-butanoyl; γGlu = O=C(O)[C@H](CCC(=O)[*:2])N[*:1]; Palmitoyl = CCCCCCCCCCCCCCCC(=O)*; Myristoyl = CCCCCCCCCCCCCC(=O)*; αMeK = C[C@](N)(CCCCN)C(=O)O; Aib = CC(C)(N)C(=O)O
ASSAY_ENDPOINT: EMax, OVCAR 5 cells (cAMP) (%)
Write the answer as a number in %, unit excluded.

Record excerpt, results attached:
>  <BINDER>
Ac-LEGREFVRAK(Ac)I[Aib][Aib]EGK([TTDS-TTDS-TTDS-γGlu-γGlu-γGlu-Palmitoyl])STWS[Aib]RRK(Ac)-NH2 [peptide of SEQ ID NO: 39]

>  <EMax, OVCAR 5 cells (cAMP), %>
93

$$$$
>  <BINDER>
Ac-LEGREKVRAK(Ac)I[Aib][Aib]EGK([TTDS-TTDS-TTDS-γGlu-γGlu-γGlu-Palmitoyl])STWS[Aib]RKK(Ac)-NH2 [peptide of SEQ ID NO: 1]

>  <EMax, OVCAR 5 cells (cAMP), %>
99

$$$$
>  <BINDER>
Ac-LEGREKVRAK(Ac)I[Aib][Aib]EGK([TTDS-TTDS-TTDS-γGlu-γGlu-γGlu-Palmitoyl])STFSKRAK(Ac)-NH2 [peptide of SEQ ID NO: 13]

>  <EMax, OVCAR 5 cells (cAMP), %>
91

$$$$

From here, focus on the item given below.
Problem: For Ac-LEGREKVRAK(Ac)I[Aib][Aib]EGK([TTDS-TTDS-TTDS-γGlu-γGlu-γGlu-Myristoyl])STFS[αMeK]RAK-NH2 [peptide of SEQ ID NO: 96] , write its EMax, OVCAR 5 cells (cAMP).
Solution: 92

These data points were gathered from patent US20190233494A1.
